// provenance: patent EP0908457B1

Tested on: Monochoria vaginalis, Presl.
Assay: Preemergence weed control under flooded paddy conditions, MOOVA (Monochoria); further: meaning of each grade not given here
Type: in vivo
Settings: Rate 0.0320 kg/ha; preemergence, flooded paddy; rated 3-4 weeks after treatment
Documented herbicidal effect rating, MOOVA across a set of compounds
Number only, no unit.

Please review the following examples before continuing.
| compound | assay-system | herbicidal effect rating, MOOVA |
| --- | --- | --- |
| C=CC(CCCC)OC(=O)COc1ccc(C)cc1-c1nsc2ccc(-n3c(=O)cc(C(F)(F)F)n(C)c3=O)cc12 (stereo not drawn) [Example 520] | Monochoria vaginalis, Presl. | 9.0 |
| CCCS(=O)(=O)NC(=O)COc1ccccc1-c1nsc2ccc(-n3c(=O)cc(C(F)(F)F)n(C)c3=O)cc12 [Example 556] | Monochoria vaginalis, Presl. | 9.0 |
| CNC(=O)COc1ccc(C)cc1-c1nsc2ccc(-n3c(=O)cc(C(F)(F)F)n(C)c3=O)cc12 [Example 561] | Monochoria vaginalis, Presl. | 9.0 |
| CCS(=O)(=O)NC(=O)COc1ccccc1-c1nsc2ccc(-n3c(=O)cc(C(F)(F)F)n(C)c3=O)cc12 [Example 558] | Monochoria vaginalis, Presl. | 9.0 |
| CCCCCCC#CCCOC(=O)COc1ccc(C)cc1-c1nsc2ccc(-n3c(=O)cc(C(F)(F)F)n(C)c3=O)cc12 [Example 522] | Monochoria vaginalis, Presl. | 9.0 |

## Task So what's the measured herbicidal effect rating, MOOVA for this one? CON(C)C(=O)/C=C/c1nsc2ccc(-n3c(=O)cc(C(F)(F)F)n(C)c3=O)cc12 [Example 565]
## Result 9.0

## Task So what's the measured herbicidal effect rating, MOOVA for this one? CCCCCCCCCOC(=O)COc1ccc(C)cc1-c1nsc2ccc(-n3c(=O)cc(C(F)(F)F)n(C)c3=O)cc12 [Example 519]
## Result 9.0

## Task So what's the measured herbicidal effect rating, MOOVA for this one? C#CC(C)OC(=O)C(C)(C)Oc1ccc(C)cc1-c1nsc2ccc(-n3c(=O)cc(C(F)(F)F)n(C)c3=O)cc12 (stereo not drawn) [Example 531]
## Result 9.0

## Task So what's the measured herbicidal effect rating, MOOVA for this one? Cc1ccc(OC(C)C(=O)c2ccc(C)c(C)c2)c(-c2nsc3ccc(-n4c(=O)cc(C(F)(F)F)n(C)c4=O)cc23)c1 (stereo not drawn) [Example 542]
## Result 7.0

## Task So what's the measured herbicidal effect rating, MOOVA for this one? CNC(=O)COc1ccccc1-c1nsc2ccc(-n3c(=O)cc(C(F)(F)F)n(C)c3=O)cc12 [Example 562]
## Result 9.0
